# TARGET_OR_TEST_SYSTEM: Alpha-bungarotoxin (Bungarus multicinctus) (UniProt P60615)
# Sequence (P60615 whole entry, looked up): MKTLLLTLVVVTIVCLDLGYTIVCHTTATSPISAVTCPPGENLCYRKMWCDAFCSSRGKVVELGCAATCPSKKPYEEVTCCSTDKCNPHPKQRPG
# PROCEDURE_DETAILS: alpha-bungarotoxin binders on microarray, profiling panel, artefact control for SMM control protein annotation, biochemical, small-molecule microarray, Alexa647 label, 635/667 nm fluorescence (AID 1117)
# RUN_CONDITIONS: alpha-BTX-A647 binding fluorescence, higher = more signal

COMPOUND	composite z-score
C=CCN1C(=O)[C@]2(CC=C)N=C(c3ccc(OCCCO)cc3)O[C@@H]2c2ccccc21	1.08
COc1ccc([Si](C)(C)[C@H]2[C@H](CCn3cc([C@H](O)c4ccccc4)nn3)O[C@@]3(C(=O)N(Cc4ccc(N5CCOC5=O)cc4)c4ccccc43)[C@@H]2C)cc1	-0.374
O=C1O[C@@H](c2ccccc2)[C@@H](c2ccccc2)N2[C@@H](c3ccccc3OCCO)[C@]3(C(=O)Nc4ccc(C#CC5=CCCCC5)cc43)[C@@H](C(=O)NC[C@H](O)c3ccccc3)[C@H]12	1.31
COCCOC(=O)N1C(=O)[C@@]2(c3cc(C#CC4=CCCCC4)ccc31)[C@H](c1ccccc1OCCO)N1[C@H](c3ccccc3)[C@H](c3ccccc3)OC(=O)[C@H]1[C@@H]2C(=O)N1CCc2cc(OC)c(OC)cc2C1	0.761
COc1ccc([Si](C)(C)[C@H]2[C@H](CCn3cc([C@H](O)c4ccccc4)nn3)O[C@@]3(C(=O)N(Cc4ccc(N5CCC5=O)cc4)c4ccccc43)[C@@H]2C)cc1	0.54
COc1ccc(C(O)C2C=CC3C(=O)N(c4ccccc4)C(=O)C3N2Nc2ccc(C#N)cc2)c2ccccc12 (configuration not stated)	1.68
NCCCCCCNC(=O)[C@@H]1C[C@@H]2C(=O)N3CCC[C@H]3C(=O)N2[C@@H]1c1ccc(O)cc1	0.705
